Please provide measured TGI for the entries that follow.
system: MOLT-4 leukemia; experiment: NCI tumour cell line growth inhibition, 48 h
// units = µM; emit number, no label

Record CC1CC[C@@]2(OC1)O[C@H]1C[C@H]3[C@@H]4CC[C@H]5C[C@@H](OC6OC(CO)C(OC7OC(CO)C(OC8OC(CO)C(O)C(OC9OC(C)C(OC%10OC(C)C(O)C(O)C%10O)C(O)C9O)C8OC8OCC(O)C(O)C8O)C(O)C7O)C(O)C6O)CC[C@]5(C)[C@H]4CC(=O)[C@]3(C)[C@H]1[C@@H]2C (stereo not given in full) . Reported TGI: 34.6

Record O=C(Nc1nnc(-c2ccccc2)o1)C(SC(=S)N1CCOCC1)c1ccccc1 (stereo not given) . Reported TGI: 83.1

* * *

system: SF-268 CNS; experiment: NCI tumour cell line growth inhibition, 48 h
MEASURE: TGI

Record NC(=O)C(Br)CBr (stereo not given) . Reported TGI: 8.29 µM

Record CCCC(CC)c1c(O)c(O)c(C(CC)CCC)c(C(CC)CCC)c1C(CC)CCC (stereo not given) . Reported TGI: > 10 µM

Record NC(c1ccccc1)(C(F)(F)F)P1(=O)OC(=O)c2ccccc2O1 (stereo not given) . Reported TGI: > 100 µM

Record CCNc1c(C(=O)N(CC)CC)c(=O)[nH]c2ncccc12 . Reported TGI: > 100 µM

Record CNS(=O)(=O)NN(C)S(=O)(=O)c1ccc(Cl)cc1 . Reported TGI: > 100 µM

* * *

system: KM12 colon; assay: NCI tumour cell line growth inhibition, 48 h
Please provide measured TGI for the entries that follow.

Record Cc1ccc(S(=O)(=O)NC(=O)NCCC(=O)O)cc1 . Reported TGI: > 100 µM

Record COc1cc(/C=C2\N=C(c3ccccc3)N(/N=C3\C(=O)Nc4ccccc43)C2=O)cc(OC)c1OC . Reported TGI: > 100 µM

Record O=C(Nc1nnc(-c2ccccc2)o1)C(SC(=S)N1CCOCC1)c1ccccc1 (stereo unspecified) . Reported TGI: > 100 µM

Record C[C@@H]1C[C@]2(C[C@@H](C)[C@H]3C(C[C@@]4(C)CCC[C@@H]5C6=C[C@H](CCC34C)OC6=CC(=O)OC5(C)C)O2)OC1=O (stereo partly specified) . Reported TGI: > 51.5 µM

Record CCOC(=O)C1=C(C)C(C(=O)OC)/C(=C/c2cccc3cccnc23)C1=O (stereo unspecified) . Reported TGI: > 10 µM

Record COc1cc(N=Nc2ccccc2)cc(/C=N\[N-]C(N)=S)c1[O-].COc1cc(N=Nc2ccccc2)cc(/C=N\[N-]C(N)=S)c1[O-].[Fe+4] . Reported TGI: > 100 µM

* * *

Please provide measured TGI for the entries that follow.
tested on: OVCAR-4 ovarian; assay: NCI tumour cell line growth inhibition, 48 h

Result for C[C@]12CC/C(=N\N)C[C@@H]1CC[C@@H]1[C@@H]2CC[C@]2(C)/C(=N/N)CC[C@@H]12 , tested on OVCAR-4 ovarian, TGI: > 100 µM

Result for OCCN(CCO)c1cccc(N(CCO)CCO)c1 , tested on OVCAR-4 ovarian, TGI: > 100 µM

Result for CCNC(=O)/C=C/CCC#Cc1ccc(-c2ccc(-c3cccs3)s2)s1 , tested on OVCAR-4 ovarian, TGI: > 100 µM

Result for C=C(CC(=O)Nc1ccc(C(=O)OC)o1)C(=O)OC , tested on OVCAR-4 ovarian, TGI: 71.6 µM

Result for O=C(O)CNS(=O)(=O)c1ccc(NC(=O)c2ccc(F)cc2)cc1 , tested on OVCAR-4 ovarian, TGI: > 100 µM

Result for CN(C)CCCNc1c2ccccc2nc2cccc([N+](=O)[O-])c12 , tested on OVCAR-4 ovarian, TGI: < 0.001 µM

Result for CCOC(=O)c1c2c(n(-c3ccc(OC)cc3)c1C)C(=O)C(=O)c1ccccc1-2 , tested on OVCAR-4 ovarian, TGI: 3.44 µM

Result for COc1ccccc1/C=C1\CCC(CNc2ccc(Cl)cc2)C1=O (stereo not drawn) , tested on OVCAR-4 ovarian, TGI: 28.2 µM
